// values below are reported Ki
Target: Cannabinoid receptor 2 (Homo sapiens, UniProt P34972)
Sequence (P34972 whole entry): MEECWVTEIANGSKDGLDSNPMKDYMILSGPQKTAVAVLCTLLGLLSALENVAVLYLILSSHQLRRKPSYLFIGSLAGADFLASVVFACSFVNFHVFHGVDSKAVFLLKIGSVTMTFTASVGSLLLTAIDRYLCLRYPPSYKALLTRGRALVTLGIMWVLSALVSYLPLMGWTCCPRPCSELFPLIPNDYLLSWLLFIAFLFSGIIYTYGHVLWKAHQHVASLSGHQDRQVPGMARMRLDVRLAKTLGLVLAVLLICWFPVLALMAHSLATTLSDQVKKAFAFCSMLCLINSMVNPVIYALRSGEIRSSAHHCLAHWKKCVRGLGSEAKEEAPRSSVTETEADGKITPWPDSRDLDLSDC
Assay: Displacement of [3H]CP-55940 from human recombinant cannabinoid CB2 receptor expressed in CHO cells after 3 hrs by liquid scintillation counting
observable: Ki

| compound | valueObserved |
| --- | --- |
| O=C(NC1CCCCC1)N1CCN(C(c2ccc(Cl)cc2)c2ccc(Cl)cc2Cl)CC1 (stereo not drawn) | 26 nM |
| O=C(NC1CCCCC1)N1CCN(C(c2ccccc2)c2ccc(Cl)cc2F)CC1 (stereo not drawn) | 526 nM |
| S=C(NC1CCCCC1)N1CCN(C(c2ccccc2)c2ccc(Cl)cc2Cl)CC1 (stereo not drawn) | 673 nM |
| O=C(N1CCCCC1)N1CCN(C(c2ccccc2)c2ccc(Cl)cc2Cl)CC1 (stereo not drawn) | 987 nM |
| O=C(C1CCCC1)N1CCN(C(c2ccccc2)c2ccc(Cl)cc2Cl)CC1 (stereo not drawn) | 4880 nM |
| O=C(C1CCCCC1)N1CCN(C(c2ccccc2)c2ccccc2)CC1 | 3050 nM |
| O=C(NC1CCCCC1)N1CCN(C(c2ccc(F)cc2)c2ccc(Cl)cc2Cl)CC1 (stereo not drawn) | 159 nM |
| O=C(NC1CCCCC1)N1CCN(C(c2ccc(Oc3ccccc3)cc2)c2ccc(Cl)cc2Cl)CC1 (stereo not drawn) | 52 nM |
| Cc1ccc(C(c2ccc(Cl)cc2Cl)N2CCN(C(=O)NN3CCCCC3)CC2)cc1 (stereo not drawn) | 317 nM |
| Cc1ccc(C(c2ccc(Cl)cc2Cl)N2CCN(C(=O)NC3CCCCC3)CC2)cc1 (stereo not drawn) | 329 nM |
| CCCCNC(=O)N1CCN(C(c2ccccc2)c2ccc(Cl)cc2Cl)CC1 (stereo not drawn) | 918 nM |
| O=C(N1CCOCC1)N1CCN(C(c2ccccc2)c2ccc(Cl)cc2Cl)CC1 (stereo not drawn) | 618 nM |
| O=C(C1CCC1)N1CCN(C(c2ccccc2)c2ccc(Cl)cc2Cl)CC1 (stereo not drawn) | 2120 nM |
| O=C(NC1CCCCC1)N1CCN(C(c2ccccc2)c2ccccc2)CC1 | 2410 nM |
| O=C(NC1CCCCC1)N1CCN(C(c2ccc(C(F)(F)F)cc2)c2ccc(Cl)cc2Cl)CC1 (stereo not drawn) | 274 nM |
| O=C(NC1CCCCC1)N1CCN(C(c2cccc(Cl)c2)c2ccc(Cl)cc2Cl)CC1 (stereo not drawn) | 407 nM |
| S=C(NC1CCCCC1)N1CCN(C(c2ccccc2)c2ccccc2)CC1 | 1870 nM |
| O=C(NC1CCCCC1)N1CCN(C(c2ccccc2)c2ccc(F)cc2Cl)CC1 (stereo not drawn) | 1300 nM |
